# experiment-description: Inhibition of helicase activity of BK polyomavirus LTAg (E265 to D629 residues) expressed in Escherichia coli using Cy5/BHQ3 dsDNA pre-incubated for 20 mins and measured after 120 to 180 mins by fluorescence based assay
# Design: species or system Betapolyomavirus hominis
pIC50: −log10 of the molar value.
The following compounds are listed with their measured pIC50 values.

Recorded results for 2 compounds are shown here.
CCOc1ccccc1-c1nc2cnccc2s1 ... < 4.10
c1ccc(Oc2ncncc2-c2nn3cnnc3s2)cc1 ... < 4.10

What value of measured pIC50 is listed for "COc1cccc(-c2nn3cnnc3s2)c1OC" ?
< 4.10

---

# tested-on: Large T antigen (JC polyomavirus)
# Sequence (P03072 whole entry): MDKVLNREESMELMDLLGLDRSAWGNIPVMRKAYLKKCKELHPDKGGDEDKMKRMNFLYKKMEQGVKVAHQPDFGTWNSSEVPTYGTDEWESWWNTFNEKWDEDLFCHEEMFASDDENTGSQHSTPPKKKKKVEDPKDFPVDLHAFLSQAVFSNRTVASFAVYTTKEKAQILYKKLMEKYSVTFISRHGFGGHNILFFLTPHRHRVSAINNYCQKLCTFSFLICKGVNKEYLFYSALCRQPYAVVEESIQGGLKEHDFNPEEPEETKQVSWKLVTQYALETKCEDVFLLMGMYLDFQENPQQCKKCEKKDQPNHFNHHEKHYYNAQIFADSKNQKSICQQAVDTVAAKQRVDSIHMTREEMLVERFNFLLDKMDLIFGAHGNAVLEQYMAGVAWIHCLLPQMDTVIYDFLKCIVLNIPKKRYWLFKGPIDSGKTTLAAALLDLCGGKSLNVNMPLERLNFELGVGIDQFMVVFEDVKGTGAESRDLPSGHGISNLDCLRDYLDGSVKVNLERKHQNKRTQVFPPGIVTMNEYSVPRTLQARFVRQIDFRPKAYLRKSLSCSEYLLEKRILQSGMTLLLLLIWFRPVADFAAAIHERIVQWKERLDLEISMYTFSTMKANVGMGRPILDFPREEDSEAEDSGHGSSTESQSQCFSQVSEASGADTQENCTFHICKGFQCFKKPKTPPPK
pIC50: −log10 of the molar value.
endpoint-name: pIC50

c1ccc(-c2nn3cnnc3s2)c(OCC2CCOCC2)c1 ... 5.20
CC(=O)Nc1ccc(Oc2ncccc2-c2nc3ccncc3s2)cc1 ... 6.22
COc1ccccc1-c1nc2cc(N)ncc2s1 ... 5.37
COc1ccccc1-c1nn2cnnc2s1 ... 4.71
c1ccc(-c2nn3cnnc3s2)c(OCCC2CCOCC2)c1 ... 5.24

---

# experiment-description: Inhibition of helicase activity of BK polyomavirus LTAg (E265 to D629 residues) expressed in Escherichia coli using Cy5/BHQ3 dsDNA pre-incubated for 20 mins and measured after 120 to 180 mins by fluorescence based assay
# Design: species or system Betapolyomavirus hominis
endpoint-name: IC50 (µM)

COc1ccccc1-c1nc2cc(N)ncc2s1 ... 8.7

[P] Oc1ccccc1-c1nc2ccncc2s1
[Q] COc1ccc(-c2nn3cnnc3s2)c(OC)c1
Quick check, higher IC50 between P and Q ? State the label of the item chosen.
P
(P: 53 µM, Q: 24 µM)

---

Entries annotated with measured pIC50
# experiment-description: Inhibition of helicase activity of BK polyomavirus LTAg (E265 to D629 residues) expressed in Escherichia coli using Cy5/BHQ3 dsDNA pre-incubated for 20 mins and measured after 120 to 180 mins by fluorescence based assay
# Design: species or system Betapolyomavirus hominis
pIC50: −log10 of the molar value.

Nc1ccccc1-c1nn2cnnc2s1 ... < 4.10
COc1ccccc1Cc1nn2cnnc2s1 ... < 4.10
CNc1cc2nc(-c3ccccc3OC)sc2cn1 ... < 4.10
c1ccc(C2CC2)c(-c2nn3cnnc3s2)c1 ... < 4.10

Attention now shifts to the item below.
Which pIC50 is reported for this compound? "COc1cccc(OC)c1-c1nn2cnnc2s1"
< 4.10

---

# reported pIC50; entries follow
# experiment-description: Inhibition of helicase activity of BK polyomavirus LTAg (E265 to D629 residues) expressed in Escherichia coli using Cy5/BHQ3 dsDNA pre-incubated for 20 mins and measured after 120 to 180 mins by fluorescence based assay
# Set-up: species or system Betapolyomavirus hominis
Reminder that pIC50 is minus the log10 of a molar concentration.

Name the recorded pIC50 for "c1ccc(Oc2ccccc2-c2nn3cnnc3s2)cc1" .
5.43

And then "c1ccc(Oc2ncccc2-c2nc3ccncc3s2)cc1" , what is it?
5.89

Now the same for "COCCOc1ccccc1-c1nn2cnnc2s1"
4.20

Proceed to "c1ccc(-c2nn3cnnc3s2)c(OCCC2CCOCC2)c1"
5.08

Same for "c1cc2c(c(-c3nn4cnnc4s3)c1)OCC2"
4.68

---

# experiment-description: Inhibition of helicase activity of BK polyomavirus LTAg (E265 to D629 residues) expressed in Escherichia coli using Cy5/BHQ3 dsDNA pre-incubated for 20 mins and measured after 120 to 180 mins by fluorescence based assay
# Parameters: species or system Betapolyomavirus hominis
endpoint-name: IC50

COc1ccccc1-c1nc2ccnc(N)c2s1 ... > 80 µM
Cc1ccccc1-c1nn2cnnc2s1 ... > 80 µM
Oc1ccccc1-c1nn2cnnc2s1 ... > 80 µM

Kindly review the next compound as well.
Endpoint output: IC50 of "CN(C)c1ccccc1-c1nn2cnnc2s1" . Value?
> 80 µM
